target: Amyloid-beta precursor protein (Homo sapiens, UniProt P05067)
Sequence (P05067 whole entry): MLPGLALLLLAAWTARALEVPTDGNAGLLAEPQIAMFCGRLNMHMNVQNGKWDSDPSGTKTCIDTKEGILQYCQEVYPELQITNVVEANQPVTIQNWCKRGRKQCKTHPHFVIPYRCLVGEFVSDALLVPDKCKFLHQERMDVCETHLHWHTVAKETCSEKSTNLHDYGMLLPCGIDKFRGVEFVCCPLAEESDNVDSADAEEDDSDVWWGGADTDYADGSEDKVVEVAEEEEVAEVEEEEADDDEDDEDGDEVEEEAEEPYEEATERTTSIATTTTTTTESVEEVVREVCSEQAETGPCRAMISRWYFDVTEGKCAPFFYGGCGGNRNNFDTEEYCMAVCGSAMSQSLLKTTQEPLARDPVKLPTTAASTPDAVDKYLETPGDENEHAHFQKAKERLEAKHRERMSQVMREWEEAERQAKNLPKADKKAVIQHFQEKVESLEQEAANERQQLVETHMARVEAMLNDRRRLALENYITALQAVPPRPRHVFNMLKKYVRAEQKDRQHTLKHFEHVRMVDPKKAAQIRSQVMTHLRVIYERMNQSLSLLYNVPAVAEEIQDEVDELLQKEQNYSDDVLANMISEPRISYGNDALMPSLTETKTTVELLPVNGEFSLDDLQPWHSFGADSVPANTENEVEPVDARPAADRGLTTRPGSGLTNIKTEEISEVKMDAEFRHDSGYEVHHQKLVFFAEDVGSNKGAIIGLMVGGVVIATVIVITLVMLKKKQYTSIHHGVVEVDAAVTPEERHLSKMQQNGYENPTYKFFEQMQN
Answer each item with its documented Ki.

# get_value(readout='Ki', item= CNc1ccc(-c2cn3cc(SCC(N)=O)ccc3n2)cc1C )
> 1000 nM

If you can, please state the reported Ki value of Cc1cc(-c2cn3cc(Br)ccc3n2)ccc1NC(=O)C(F)(F)F .
> 1000 nM

Recorded Ki for CNc1ccc(-c2cn3cc(Br)ccc3n2)cc1C , please?
> 1000 nM
